- Tested on: HCT-15 colon
- experimental.protocol: NCI-60 one-dose screen, 48 h
- conditions: 10 µM unless noted
This is part of a sample that, as a whole, favours compounds with a hit. Of some 83,000 tested, about 20% had one in any assay. Active and inactive are the calls of the source. Rule for the calls: active = growth percent below 10; inactive = the rest.
Respond only with the outcome that fits, drawn from active, inactive

Previously resolved entries follow.
compound	group.label
Cc1cc(O)c(C2=NN(c3ccc(S(N)(=O)=O)cc3)C(/C=C/c3ccccc3)C2)cc1Cl (stereo not drawn)	inactive
CCCCCCNC(=O)Oc1ccc(/C(=C(\C)c2ccc(Cl)cc2)c2ccc(OCCCN(C)C)cc2)cc1	active

Field: outcome | Entry: `O=S(=O)(Nc1ccc(-c2nc(-c3cccc(OCCN4CCOCC4)c3)c(-c3ccnc(Br)c3)[nH]2)cc1)c1ccccc1`
active

Record lookup: outcome of this test for `O=C(Nc1ccc(Br)cc1F)c1cc(Br)ccc1O` ?
active

Test call for this compound, please: `C=C1C(=O)O[C@H]2[C@H]1CC/C(COC(=O)CCC(=O)NCCOCCOCC(=O)Nc1ccc(OC)c(C(N)=O)c1O)=C\CC[C@@]1(C)O[C@@H]21`
inactive

How did this test come out for `O=c1c2cc(F)cc(Cl)c2sc2c(NCCCNCCO)nc3ccccc3c12` ?
inactive

Answer briefly: the call reported for `COc1cc(C(=O)c2cc(C)c3[nH]c4ccc(C)cc4c3c2C)cc(OC)c1OC` in this assay.
active

Please share the test call associated with `C[C@H]1[C@H]2[C@H]3CC[C@@H]4[C@@]5(C)CC[C@H](O)C(C)(C)[C@@H]5CC[C@@]4(C)[C@]3(C)CC[C@]23CO[C@]1(C)[C@@H](C(=O)/C=C\c1cccnc1)C3` .
inactive

====

Entries and their growth
- Test system: PC-3 prostate
- experimental.protocol: NCI-60 one-dose screen, 48 h (100 = growth as untreated, 0 = no growth, -100 = all killed)
- conditions: 10 µM unless noted
This is part of a sample that, as a whole, favours compounds with a hit. Of some 83,000 tested, about 20% had one in any assay.
Write the value in % as a bare number.

compound	growth (%)
CCc1cccc2c3c(sc12)C(c1ccc(F)cc1)C(C#N)=C(N)O3 (stereo not drawn)	20.4
Cc1ccc(S(=O)(=O)N/N=C/C2(c3ccccc3)CC2)cc1	93.7

Now for the compound whose growth we want.
The recorded growth for entry COc1ccc2cc(C(C)C(=O)Nc3ccc(-c4n[nH]c(=S)n4C4CCCCC4)cc3)ccc2c1 (stereo not drawn) equals 39.2

====

- System: PC-3 prostate
- experimental.protocol: NCI-60 one-dose screen, 48 h (100 = growth as untreated, 0 = no growth, -100 = all killed)
- conditions: 10 µM unless noted
The panel holds about 83,000 compounds, 20% with a hit somewhere; the sample as a whole holds those more often.
Recorded growth, one value per entry.
Write down the numeric answer in % and omit the unit.

Completed entries (count: 3):
compound	u	meas.value
COc1ccc2[nH]c(-c3ccccc3)c(/C=C(\C#N)S(=O)(=O)c3ccccc3)c2c1	%	49.6
O=C(S)CNC(=O)c1ccccc1	%	91.2
O=C(N/N=C/[C@H](O)[C@@H](O)[C@@H](O)[C@H](O)CO)c1ccc(NC(=O)c2cccnc2)cc1	%	102

The recorded growth for `COC(=O)/C=C1\S/C(=N\Nc2ccc([N+](=O)[O-])cc2[N+](=O)[O-])N(C2CCCCC2)C1=O` is 18.4

Query `C[C@]12CC[C@@H]3c4cc(OC(F)F)c(OS(N)(=O)=O)cc4CC[C@H]3[C@@H]1CC[C@@H]2O` yields growth of 25.5

So for `O=C1CN(CCN2CC(=O)N(Cc3ccccc3)C(=O)C2)CC(=O)N1Cc1ccccc1` , the logged growth turned out to be 93.9

// sample `COc1ccc(C2=Nn3c(nnc3-c3cc(Cl)cc(Cl)c3Cl)SC2)cc1` , its growth was 18.1

Field growth (entry COc1ccc(S(=O)(=O)n2cc(C3OC(c4cc(OC)c(OC)c(OC)c4)=NN3C(C)=O)c3ccccc32)cc1OC (centres undefined) ) reads 80.3

Given item O=C(CCOCCNC(=O)COc1ccc2c(c1)OCC(c1ccc(F)cc1)C2=O)NCCCC(O)(P(=O)(O)O)P(=O)(O)O (centres undefined) , the value recorded as its growth is 102
